Target: furin, P09958;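 further: purified furin at 1:10 enzyme:substrate in 50 mM HEPES pH 7.5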
Sequence (P09958 whole entry): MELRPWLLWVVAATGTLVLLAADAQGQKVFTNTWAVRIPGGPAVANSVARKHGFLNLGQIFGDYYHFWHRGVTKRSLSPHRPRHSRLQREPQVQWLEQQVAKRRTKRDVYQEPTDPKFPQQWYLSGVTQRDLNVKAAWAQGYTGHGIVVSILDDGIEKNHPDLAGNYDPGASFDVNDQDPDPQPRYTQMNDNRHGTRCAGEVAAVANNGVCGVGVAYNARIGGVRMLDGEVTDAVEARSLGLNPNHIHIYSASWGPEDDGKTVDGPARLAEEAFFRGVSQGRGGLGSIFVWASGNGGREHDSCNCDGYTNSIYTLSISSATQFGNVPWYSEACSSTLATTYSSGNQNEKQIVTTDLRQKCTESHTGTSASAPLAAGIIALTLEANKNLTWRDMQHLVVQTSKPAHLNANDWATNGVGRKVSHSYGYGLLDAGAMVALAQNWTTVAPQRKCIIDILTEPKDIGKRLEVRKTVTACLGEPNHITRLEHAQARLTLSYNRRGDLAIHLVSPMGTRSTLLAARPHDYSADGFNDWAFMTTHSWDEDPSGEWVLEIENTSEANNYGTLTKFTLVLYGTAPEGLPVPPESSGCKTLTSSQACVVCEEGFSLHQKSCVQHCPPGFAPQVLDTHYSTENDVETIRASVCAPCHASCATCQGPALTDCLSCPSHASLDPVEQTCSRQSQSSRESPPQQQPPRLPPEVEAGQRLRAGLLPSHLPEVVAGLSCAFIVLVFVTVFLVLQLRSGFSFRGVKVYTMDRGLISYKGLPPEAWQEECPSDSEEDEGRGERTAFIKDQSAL
Experiment: furin cleavage Z-score vs untreated control; higher = more cleavage, active = 3.5 or more, inactive = 1 or less, 8 variable residues between constant flanks
Settings: 30 min
The list shows a part of the results. The true hit rate is not given.
Entries and their measured furin cleavage Z-score follow.

Sequence chain | furin cleavage Z-score
CADLVGWPAPAGNASASA [HC714] | -1.65
CAEVITSTWVAGNASASA [HC2184] | 0.767
CAVTPCSAHLAGNASASA [HC2470] | -1.39
CAIGGHYVQMAGNASASA [HC625] | -0.429
